# Test system: Plasmodium falciparum
# protocolDescription: GSK_TCMDC: Inhibition of Plasmodium falciparum 3D7 in whole red blood cells, using parasite LDH activity as an index of growth. Test compounds present at 2uM
# Format: functional
The compounds listed here are annotated with their Inhibition.

smilesRepr: CC(C)CCN1CCCN(Cc2cccc(NC(=O)c3ccc(Cl)c(Cl)c3)c2)CC1.O=C(O)C(F)(F)F
Inhibition: 92%
--
smilesRepr: O=C(N[C@H]1CCN(CCc2ccc(O[C@H]3CCNC3)c(Cl)c2)C1)c1ccc(Cl)c(Cl)c1.O=C(O)C(F)(F)F
Inhibition: 100%
--
smilesRepr: Cc1cc(N[C@@H](Cc2ccccc2)C(=O)NCc2cccc(F)c2)nc(NCCc2cccnc2)n1.O=C(O)C(F)(F)F
Inhibition: 92%
--
smilesRepr: O=C1O[C@H](c2ccccc2)[C@H](c2ccccc2)N(C(=O)OCc2ccccc2)[C@H]1Cc1ccccc1C1CCCC1
Inhibition: 97%
